Cited source: ChEMBL document CHEMBL1140771

In this section we review reported MIC values for a set of molecules.
test system: Trypanosoma cruzi; assay: Antitrypanosomal activity against Trypanosoma cruzi EP amastigotes in Vero cells after 96 hrs; assay type: functional
Only the number, expressed in µM, is required.

Consider the following illustrative entries.
input-smiles: O=C(N/N=C/C=C/c1ccc([N+](=O)[O-])o1)OC/C=C/c1ccccc1
u: µM
MIC: 10

input-smiles: C=C(C)CNC(=O)N/N=C/c1ccc([N+](=O)[O-])o1
u: µM
MIC: 10

input-smiles: O=C(N/N=C/c1ccc([N+](=O)[O-])o1)Oc1ccccc1
u: µM
MIC: 30

Entry "O=C(N/N=C/C=C/c1ccc([N+](=O)[O-])o1)Oc1ccccc1" has what MIC?
3

---

test system: Trypanosoma cruzi; assay: Inhibition of sterol biosynthesis in Trypanosoma cruzi EP epimastigotes assessed as ergosterol levels at 3 uM after 120 hrs; format: functional; parameters: scale not given: the % may be the effect or the level left
Entries and their Activity
Express it in %; write the number only.

input-smiles: O=C(N/N=C/C=C/c1ccc([N+](=O)[O-])o1)OC/C=C/c1ccccc1
measured-result: 21
--
input-smiles: C=C(C)CNC(=O)N/N=C/C=C/c1ccc([N+](=O)[O-])o1
measured-result: 18.4
--
input-smiles: O=C(N/N=C/C=C/c1ccc([N+](=O)[O-])o1)Oc1ccccc1
measured-result: 7.9

Next item in the queue.
// lookup Activity for "O=C(N/N=C/c1ccc([N+](=O)[O-])o1)Oc1ccccc1"
7.6
